Taken from ChEMBL document CHEMBL1921730.

Test system: CHO
Test: Cytotoxicity against CHO cells after 48 hrs by MTT assay
Format: cell-based
Details: Cricetulus griseus
pIC50: −log10 of the molar value.
Each item that follows carries a reported pIC50.
measurement.type: pIC50

{"query.smiles": "c1cn(CCCCCCCCCCCCCCCCCCCCn2ccnc2)cn1", "obs.value": 5.10}
{"query.smiles": "C[n+]1ccn(CCCCCCCCCCCCCCn2cc[n+](C)c2)c1.[I-].[I-]", "obs.value": 4.96}
{"query.smiles": "C[n+]1ccn(-c2ccc(-c3ccc(-n4cc[n+](C)c4)cc3)cc2)c1.[I-].[I-]", "obs.value": 5.05}
{"query.smiles": "[Br-].[Br-].c1ccc(C[n+]2ccn(-c3ccc(-c4ccc(-n5cc[n+](Cc6ccccc6)c5)cc4)cc3)c2)cc1", "obs.value": 4.92}
{"query.smiles": "C[n+]1ccn(CCCCCCCCCCCCCCCn2cc[n+](C)c2)c1.[I-].[I-]", "obs.value": 5.92}
{"query.smiles": "Cl.Cl.c1cn(CCCCCCCCn2ccnc2)cn1", "obs.value": 3.85}
{"query.smiles": "Cl.Cl.c1cn(CCCCCCn2ccnc2)cn1", "obs.value": 3.05}
{"query.smiles": "c1cn(-c2ccc(-c3ccc(-n4ccnc4)cc3)cc2)cn1", "obs.value": 4.57}
{"query.smiles": "Cl.Cl.c1cn(CCCCCCCCCCCCn2ccnc2)cn1", "obs.value": 5.85}
{"query.smiles": "C[n+]1ccn(CCCCCCCCCCCCn2cc[n+](C)c2)c1.[I-].[I-]", "obs.value": 4.59}
{"query.smiles": "C[n+]1ccn(CCCCCCCCCCCn2cc[n+](C)c2)c1.[I-].[I-]", "obs.value": 4.38}
{"query.smiles": "C[n+]1ccn(CCCCCCCCCCCCCCCCCCCCn2cc[n+](C)c2)c1.[I-].[I-]", "obs.value": 5.85}
{"query.smiles": "C[n+]1ccn(CCCCCCCCCCn2cc[n+](C)c2)c1.[I-].[I-]", "obs.value": 4.24}
{"query.smiles": "Cl.Cl.c1cn(CCCCCCCCCCCCCn2ccnc2)cn1", "obs.value": 5.52}
{"query.smiles": "Cl.Cl.c1cn(CCCCCCCCCCCCCCCn2ccnc2)cn1", "obs.value": 5.55}
{"query.smiles": "O=[N+]([O-])c1ccc(C[n+]2ccn(-c3ccc(-c4ccc(-n5cc[n+](Cc6ccc([N+](=O)[O-])cc6)c5)cc4)cc3)c2)cc1.[Br-].[Br-]", "obs.value": 4.85}
{"query.smiles": "Cl.Cl.c1ncn(CCCCCCCCCCCCn2cncn2)n1", "obs.value": 4.93}
{"query.smiles": "C[n+]1ccn(CCCCCCCCCCCCCCCCCCn2cc[n+](C)c2)c1.[I-].[I-]", "obs.value": 5.85}
{"query.smiles": "Cl.Cl.c1cn(CCCOc2ccc(OCCCn3ccnc3)cc2)cn1", "obs.value": 4.30}
{"query.smiles": "Cl.Cl.c1cn(CCCCCCCCCCCCCCn2ccnc2)cn1", "obs.value": 5.36}

====

Test: Ratio of IC50 for CHO cells to IC50 for Plasmodium falciparum
measurement.type: Ratio IC50

{"query.smiles": "c1cn(-c2ccc(-c3ccc(-n4ccnc4)cc3)cc2)cn1", "measurement.type": "Ratio IC50", "obs.value": 9}
{"query.smiles": "C[n+]1ccn(CCCCCCCCCCCCCCCCCCn2cc[n+](C)c2)c1.[I-].[I-]", "measurement.type": "Ratio IC50", "obs.value": 1556}
{"query.smiles": "C[n+]1ccn(-c2ccc(-n3cc[n+](C)c3)cc2)c1.[I-].[I-]", "measurement.type": "Ratio IC50", "obs.value": 28}
{"query.smiles": "C[n+]1ccn(CCCCCCCCCCCCCCn2cc[n+](C)c2)c1.[I-].[I-]", "measurement.type": "Ratio IC50", "obs.value": 3438}
{"query.smiles": "C[n+]1ccn(CCCCCCCCCCCCCCCCn2cc[n+](C)c2)c1.[I-].[I-]", "measurement.type": "Ratio IC50", "obs.value": 5400}
{"query.smiles": "C[n+]1ccn(CCCCCCCCn2cc[n+](C)c2)c1.[I-].[I-]", "measurement.type": "Ratio IC50", "obs.value": 96}
{"query.smiles": "Cl.Cl.c1cn(CCCCCCCCCCCCCn2ccnc2)cn1", "measurement.type": "Ratio IC50", "obs.value": 5.4}
{"query.smiles": "Cl.Cl.c1cn(CCCOc2ccc(OCCCn3ccnc3)cc2)cn1", "measurement.type": "Ratio IC50", "obs.value": 10}
{"query.smiles": "Cl.Cl.c1cn(CCCCn2ccnc2)cn1", "measurement.type": "Ratio IC50", "obs.value": 1.8}
{"query.smiles": "c1cn(Cc2ccc(-c3ccc(Cn4ccnc4)cc3)cc2)cn1", "measurement.type": "Ratio IC50", "obs.value": 38}
{"query.smiles": "Cl.Cl.c1cn(CCCCCCCCCCCCn2ccnc2)cn1", "measurement.type": "Ratio IC50", "obs.value": 0.3}
{"query.smiles": "C[n+]1cnn(CCCCCCCCCCCCn2c[n+](C)cn2)c1.[I-].[I-]", "measurement.type": "Ratio IC50", "obs.value": 6500}
{"query.smiles": "c1cn(-c2ccc(-n3ccnc3)cc2)cn1", "measurement.type": "Ratio IC50", "obs.value": 12}
{"query.smiles": "c1cn(CCCCCCCCCCCCCCCCn2ccnc2)cn1", "measurement.type": "Ratio IC50", "obs.value": 2}
{"query.smiles": "C[n+]1ccn(CCCCn2cc[n+](C)c2)c1.[I-].[I-]", "measurement.type": "Ratio IC50", "obs.value": 1.8}
{"query.smiles": "C[n+]1ccn(CCCCCCCCCCCCn2cc[n+](C)c2)c1.[I-].[I-]", "measurement.type": "Ratio IC50", "obs.value": 4333}
{"query.smiles": "c1cn(CCCCCCCCCCCCCCCCCCCCn2ccnc2)cn1", "measurement.type": "Ratio IC50", "obs.value": 3.2}
{"query.smiles": "C[n+]1cn(-c2ccc(-c3ccc(-n4c[n+](C)c5ccccc54)cc3)cc2)c2ccccc21.[I-].[I-]", "measurement.type": "Ratio IC50", "obs.value": 1400}
{"query.smiles": "Cl.Cl.c1cn(CCCCCCCCCCn2ccnc2)cn1", "measurement.type": "Ratio IC50", "obs.value": 1.6}
{"query.smiles": "C[n+]1ccn(CCCCCCn2cc[n+](C)c2)c1.[I-].[I-]", "measurement.type": "Ratio IC50", "obs.value": 56}
{"query.smiles": "C[n+]1ccn(-c2ccc(-c3ccc(-n4cc[n+](C)c4)cc3)cc2)c1.[I-].[I-]", "measurement.type": "Ratio IC50", "obs.value": 1000}
{"query.smiles": "C[n+]1ccn(CCCCCCCCCCCCCn2cc[n+](C)c2)c1.[I-].[I-]", "measurement.type": "Ratio IC50", "obs.value": 7286}
{"query.smiles": "Cl.Cl.c1cn(CCCCCCCCCCCCCCCn2ccnc2)cn1", "measurement.type": "Ratio IC50", "obs.value": 3}
{"query.smiles": "C[n+]1ccn(CCCCCCCCCCCCCCCCCCCCn2cc[n+](C)c2)c1.[I-].[I-]", "measurement.type": "Ratio IC50", "obs.value": 667}
{"query.smiles": "C[n+]1ccn(CCCCCCCCCCn2cc[n+](C)c2)c1.[I-].[I-]", "measurement.type": "Ratio IC50", "obs.value": 695}
{"query.smiles": "c1cn(CCCCCCCCCCCCCCCCCCn2ccnc2)cn1", "measurement.type": "Ratio IC50", "obs.value": 3}
{"query.smiles": "Cl.Cl.c1ncn(CCCCCCCCCCCCn2cncn2)n1", "measurement.type": "Ratio IC50", "obs.value": 0.6}
{"query.smiles": "c1cn(CCCCCCCCCCCn2ccnc2)cn1", "measurement.type": "Ratio IC50", "obs.value": 11}
{"query.smiles": "[Br-].[Br-].c1ccc(C[n+]2ccn(-c3ccc(-c4ccc(-n5cc[n+](Cc6ccccc6)c5)cc4)cc3)c2)cc1", "measurement.type": "Ratio IC50", "obs.value": 550}

====

Below is a list of entries, each paired with its recorded IC50 value.
System: Plasmodium falciparum
Experiment: Antiplasmodial activity against Plasmodium falciparum assessed as inhibition of parasite LDH activity after 72 hrs
Format: functional, organism-based
measurement.type: IC50 (µM)

{"query.smiles": "Cl.Cl.c1cn(CCCCCCCCCCCCCn2ccnc2)cn1", "endpoint.unit": "µM", "obs.value": 0.56}
{"query.smiles": "Cl.Cl.c1cn(CCCCCCn2ccnc2)cn1", "endpoint.unit": "µM", "obs.value": 90}
{"query.smiles": "C[n+]1ccn(CCCCCCCCCCCCCCCCn2cc[n+](C)c2)c1.[I-].[I-]", "endpoint.unit": "µM", "obs.value": 0.0005}
{"query.smiles": "C[n+]1ccn(CCCCCCCCCCCCCCCn2cc[n+](C)c2)c1.[I-].[I-]", "endpoint.unit": "µM", "obs.value": 0.002}
{"query.smiles": "C[n+]1ccn(CCCCCCn2cc[n+](C)c2)c1.[I-].[I-]", "endpoint.unit": "µM", "obs.value": 2.6}
{"query.smiles": "CC[n+]1ccn(CCCCCCCCCCCCn2cc[n+](CC)c2)c1.[I-].[I-]", "endpoint.unit": "µM", "obs.value": 0.012}
{"query.smiles": "O=[N+]([O-])c1ccc(C[n+]2ccn(-c3ccc(-c4ccc(-n5cc[n+](Cc6ccc([N+](=O)[O-])cc6)c5)cc4)cc3)c2)cc1.[Br-].[Br-]", "endpoint.unit": "µM", "obs.value": 0.023}
